These measurements were taken from paper PMC7591811.

property: pKi
// pKi is dimensionless: -log10 of concentration (M)

Report pKi under test system Serotonin (5-Hydroxytryptamine) 5-HT2A (Homo sapiens) for Oc1cccc(Nc2nc(-c3ccc(F)cc3F)cs2)c1 [InRAGER] . 5.11

---

property: IC50
The number alone won't do; follow it with the unit.

Report IC50 under test system Serotonin (5-Hydroxytryptamine) 5-HT2B (Homo sapiens, UniProt P41595) for Oc1cccc(Nc2nc(-c3ccc(F)cc3F)cs2)c1 . 260 nM

Report IC50 under test system Serotonin (5-Hydroxytryptamine) 5-HT2B (Homo sapiens, UniProt P41595) for COc1cc(NC(C)=O)c(Cl)cc1C(=O)Nc1nccs1 . 260 nM
